Biological target: IKZF2 (Homo sapiens (Human), UniProt Q96SW2+Q9UKS7)
Sequence (Q9UKS7 whole entry): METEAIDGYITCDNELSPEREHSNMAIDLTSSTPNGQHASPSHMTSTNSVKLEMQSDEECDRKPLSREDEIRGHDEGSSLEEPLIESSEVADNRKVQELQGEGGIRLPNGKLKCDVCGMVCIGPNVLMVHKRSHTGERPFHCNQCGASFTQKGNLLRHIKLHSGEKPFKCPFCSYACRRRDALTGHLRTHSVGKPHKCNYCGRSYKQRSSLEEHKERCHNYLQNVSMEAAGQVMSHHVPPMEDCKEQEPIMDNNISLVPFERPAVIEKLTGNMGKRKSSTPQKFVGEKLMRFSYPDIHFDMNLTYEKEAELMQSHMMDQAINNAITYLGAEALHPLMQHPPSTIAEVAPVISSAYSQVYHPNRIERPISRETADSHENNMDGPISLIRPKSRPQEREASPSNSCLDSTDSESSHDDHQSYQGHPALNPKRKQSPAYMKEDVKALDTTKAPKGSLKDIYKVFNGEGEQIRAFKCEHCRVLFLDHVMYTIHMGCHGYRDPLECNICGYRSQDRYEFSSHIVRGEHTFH
Sequence (Q96SW2 whole entry): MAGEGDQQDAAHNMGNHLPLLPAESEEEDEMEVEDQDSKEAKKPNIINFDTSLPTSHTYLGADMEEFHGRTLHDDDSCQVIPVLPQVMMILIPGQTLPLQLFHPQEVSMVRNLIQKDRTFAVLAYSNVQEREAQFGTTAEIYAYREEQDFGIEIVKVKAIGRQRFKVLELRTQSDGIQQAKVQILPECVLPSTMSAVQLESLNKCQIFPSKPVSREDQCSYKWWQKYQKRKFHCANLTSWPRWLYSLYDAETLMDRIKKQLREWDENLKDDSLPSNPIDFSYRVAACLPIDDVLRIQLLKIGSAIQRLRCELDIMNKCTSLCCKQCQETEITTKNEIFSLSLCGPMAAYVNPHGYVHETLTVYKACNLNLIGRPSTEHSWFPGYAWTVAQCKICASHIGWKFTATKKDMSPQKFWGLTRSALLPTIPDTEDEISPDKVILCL
Sequence (Q16531 whole entry partner): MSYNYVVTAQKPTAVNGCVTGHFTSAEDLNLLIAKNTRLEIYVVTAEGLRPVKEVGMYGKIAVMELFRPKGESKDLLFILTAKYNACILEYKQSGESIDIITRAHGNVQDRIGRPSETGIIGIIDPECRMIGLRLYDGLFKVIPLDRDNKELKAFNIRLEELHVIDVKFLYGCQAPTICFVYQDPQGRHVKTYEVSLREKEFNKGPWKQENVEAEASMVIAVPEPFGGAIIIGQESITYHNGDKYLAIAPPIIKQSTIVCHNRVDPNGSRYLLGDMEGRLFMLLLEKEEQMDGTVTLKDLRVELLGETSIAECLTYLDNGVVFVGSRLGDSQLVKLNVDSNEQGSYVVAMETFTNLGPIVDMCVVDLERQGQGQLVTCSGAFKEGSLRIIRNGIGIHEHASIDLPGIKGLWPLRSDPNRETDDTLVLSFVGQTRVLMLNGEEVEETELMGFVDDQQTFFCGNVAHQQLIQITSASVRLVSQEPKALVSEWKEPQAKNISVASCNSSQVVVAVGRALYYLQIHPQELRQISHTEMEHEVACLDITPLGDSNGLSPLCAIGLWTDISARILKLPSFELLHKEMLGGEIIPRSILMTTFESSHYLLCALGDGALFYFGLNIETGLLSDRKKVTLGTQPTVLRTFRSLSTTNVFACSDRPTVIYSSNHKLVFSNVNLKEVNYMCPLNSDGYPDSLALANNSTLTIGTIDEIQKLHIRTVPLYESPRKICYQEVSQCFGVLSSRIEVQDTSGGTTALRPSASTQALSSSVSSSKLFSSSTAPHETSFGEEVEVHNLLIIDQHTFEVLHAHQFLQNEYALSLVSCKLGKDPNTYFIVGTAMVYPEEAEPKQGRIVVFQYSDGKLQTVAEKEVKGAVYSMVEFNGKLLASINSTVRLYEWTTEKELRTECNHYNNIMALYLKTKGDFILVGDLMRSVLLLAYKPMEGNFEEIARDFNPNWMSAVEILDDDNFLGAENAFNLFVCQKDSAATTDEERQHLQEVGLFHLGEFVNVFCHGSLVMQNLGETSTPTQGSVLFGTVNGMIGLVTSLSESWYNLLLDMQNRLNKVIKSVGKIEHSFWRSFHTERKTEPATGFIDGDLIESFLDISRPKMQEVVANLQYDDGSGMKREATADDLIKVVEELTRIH
Assay: IKZF2 HiBiT Assay (Jurkat-IKZF2-HiBiT cell line)
Type: cell-based
Conditions: Jurkat-IKZF2-HiBiT cells, 24 hours; read-out: HiBit assay degradation analysis DC50
Readout: DC50

Consider the following illustrative entries.
Molecule	System name	DC50
O=C1CCC(N2Cc3c(ccc4c3OCC43CCN(Cc4cnn(S(=O)(=O)c5ccccc5)c4)CC3)C2=O)C(=O)N1 (stereo not drawn)	IKZF2 (Homo sapiens (Human), UniProt Q96SW2+Q9UKS7)	> 500 nM
CC1(Cn2cc(CN3CCC4(CC3)COc3c4ccc4c3CN(C3CCC(=O)NC3=O)C4=O)cn2)COC1 (stereo not drawn)	IKZF2 (Homo sapiens (Human), UniProt Q96SW2+Q9UKS7)	> 500 nM

// below: DC50 requested for another molecule
## Task Retrieve DC50 measured for O=C1CCC(N2Cc3c(ccc4c3OCC43CCN(Cc4ccn(-c5cccc(F)c5)n4)CC3)C2=O)C(=O)N1 (stereo not drawn) and print it.
## Result > 500 nM

---

Target: IKZF2 (Homo sapiens (Human), UniProt Q96SW2+Q9UKS7)
Test: IKZF2 HiBiT Assay (Jurkat-IKZF2-HiBiT cell line)
Assay type: cell-based
Conditions: Jurkat-IKZF2-HiBiT cells, 24 hours; read-out: HiBit assay degradation analysis Dmax
Readout: Dmax

Consider the following illustrative entries.
Compound	Dmax
O=C1CCC(N2Cc3c(ccc4c3OCC43CCN(Cc4cnn(Cc5ccc(F)cc5)c4)CC3)C2=O)C(=O)N1 (stereo not shown)	60 to 80%
O=C1CCC(N2Cc3c(ccc4c3OCC43CCN(Cc4cnn(CC5CC5)c4)CC3)C2=O)C(=O)N1 (stereo not shown)	60 to 80%
O=C1CC[C@H](N2Cc3c(ccc4c3OCC43CCN(Cc4ccn(-c5ccc(Cl)cc5)n4)CC3)C2=O)C(=O)N1	40 to 60%
O=C1CCC(N2Cc3c(ccc4c3OCC43CCN(Cc4ccc(F)cc4)CC3)C2=O)C(=O)N1 (stereo not shown)	40 to 60%

## Task Retrieve Dmax measured for Cn1ccc2ccc(CN3CCC4(CC3)COc3c4ccc4c3CN(C3CCC(=O)NC3=O)C4=O)cc21 (stereo not shown) and print it.
## Result 60 to 80%

## Task Retrieve Dmax measured for O=C1CCC(N2Cc3c(ccc4c3OCC43CCN(Cc4ccc(OCc5ccccc5)nc4)CC3)C2=O)C(=O)N1 (stereo not shown) and print it.
## Result 40 to 60%

## Task Retrieve Dmax measured for O=C1CCC(N2Cc3c(ccc4c3OCC43CCN(Cc4cnn(S(=O)(=O)c5ccccc5F)c4)CC3)C2=O)C(=O)N1 (stereo not shown) and print it.
## Result 60 to 80%

## Task Retrieve Dmax measured for `O=C1CC[C@H](N2Cc3c(ccc4c3OCC43CCN(Cc4cccc(-c5cnn([C@@H]6CCOC6)c5)c4)CC3)C2=O)C(=O)N1` and print it.
## Result 60 to 80%

## Task Retrieve Dmax measured for `O=C1CC[C@H](N2Cc3c(ccc4c3OCC43CCN(Cc4cnn(S(=O)(=O)c5ccc(F)c(F)c5)c4)CC3)C2=O)C(=O)N1` and print it.
## Result 40 to 60%

## Task Retrieve Dmax measured for Cc1cc(C)cc(CN2CCC3(CC2)COc2c3ccc3c2CN(C2CCC(=O)NC2=O)C3=O)c1 (stereo not shown) and print it.
## Result 60 to 80%

## Task Retrieve Dmax measured for Cn1ccc2cccc(CN3CCC4(CC3)COc3c4ccc4c3CN(C3CCC(=O)NC3=O)C4=O)c21 (stereo not shown) and print it.
## Result 60 to 80%

## Task Retrieve Dmax measured for O=C1CCC(N2Cc3c(ccc4c3OCC43CCN(Cc4cnn(C5CC5)c4)CC3)C2=O)C(=O)N1 (stereo not shown) and print it.
## Result 40 to 60%

---

DC50: recorded values
Target: IKZF2 (Homo sapiens (Human), UniProt Q96SW2+Q9UKS7)
Assay: IKZF2 HiBiT Assay (Jurkat-IKZF2-HiBiT cell line)
Assay type: cell-based
Details: Jurkat-IKZF2-HiBiT cells, 24 hours; read-out: HiBit assay degradation analysis DC50

Consider the following illustrative entries.
Molecule	DC50
CC(C)(c1ccccc1)n1cc(CN2CCC3(CC2)COc2c3ccc3c2CN([C@H]2CCC(=O)NC2=O)C3=O)cn1	< 50 nM
O=C1CCC(N2Cc3c(ccc4c3OCC43CCN(Cc4cccc(-n5ccnc5)c4)CC3)C2=O)C(=O)N1 (stereo not shown)	> 500 nM

## Task Retrieve DC50 measured for CNC(=O)c1cccc(CN2CCC3(CC2)COc2c3ccc3c2CN(C2CCC(=O)NC2=O)C3=O)c1 (stereo not shown) and print it.
## Result > 500 nM

## Task Retrieve DC50 measured for O=C1CCC(N2Cc3c(ccc4c3OCC43CCN(Cc4ccc5c(c4)C(=O)NC5)CC3)C2=O)C(=O)N1 (stereo not shown) and print it.
## Result 50 to 200 nM

## Task Retrieve DC50 measured for O=C1CCC(N2Cc3c(ccc4c3OCC43CCNCC3)C2=O)C(=O)N1 (stereo not shown) and print it.
## Result > 500 nM

## Task Retrieve DC50 measured for O=C1CCC(N2Cc3c(ccc4c3OCC43CCN(Cc4cc(F)cc(F)c4)CC3)C2=O)C(=O)N1 (stereo not shown) and print it.
## Result > 500 nM

## Task Retrieve DC50 measured for O=C1CCC(N2Cc3c(ccc4c3OCC43CCN(Cc4cnn(-c5ccc(Cl)cc5)c4)CC3)C2=O)C(=O)N1 (stereo not shown) and print it.
## Result < 50 nM

---

Target: IKZF2 (Homo sapiens (Human), UniProt Q96SW2+Q9UKS7)
Assay: IKZF2 HiBiT Assay (Jurkat-IKZF2-HiBiT cell line)
Type: cell-based
Details: Jurkat-IKZF2-HiBiT cells, 24 hours; read-out: HiBit assay degradation analysis Dmax
Readout: Dmax

Compound	Dmax
N#Cc1ccc(CN2CCC3(CC2)COc2c3ccc3c2CN(C2CCC(=O)NC2=O)C3=O)cc1 (stereo not shown)	< 40%
O=C1CCC(N2Cc3c(ccc4c3OCC43CCN(CC4CCCCC4)CC3)C2=O)C(=O)N1 (stereo not shown)	< 40%
O=C1CCC(N2Cc3c(ccc4c3OCC43CCN(Cc4ccc5nccn5c4)CC3)C2=O)C(=O)N1 (stereo not shown)	< 40%
O=C1CCC(N2Cc3c(ccc4c3OCC43CCN(Cc4cnn(-c5ccccc5Cl)c4)CC3)C2=O)C(=O)N1 (stereo not shown)	< 40%
O=C1CCC(N2Cc3c(ccc4c3OCC43CCN(Cc4cc5ccccc5s4)CC3)C2=O)C(=O)N1 (stereo not shown)	< 40%
O=C1CCC(N2Cc3c(ccc4c3OCC43CCN(Cc4cccc(N5CCCC5)c4)CC3)C2=O)C(=O)N1 (stereo not shown)	60 to 80%

## Task Retrieve Dmax measured for O=C1CCC(N2Cc3c(ccc4c3OCC43CCN(Cc4ccc5nn(CCO)cc5c4)CC3)C2=O)C(=O)N1 (stereo not shown) and print it.
## Result < 40%

## Task Retrieve Dmax measured for COCCn1ncc2c(CN3CCC4(CC3)COc3c4ccc4c3CN(C3CCC(=O)NC3=O)C4=O)cccc21 (stereo not shown) and print it.
## Result 40 to 60%

## Task Retrieve Dmax measured for O=C1CCC(N2Cc3c(ccc4c3OCC43CCN(Cc4cccc(F)c4)CC3)C2=O)C(=O)N1 (stereo not shown) and print it.
## Result 40 to 60%

## Task Retrieve Dmax measured for O=C1CCC(N2Cc3c(ccc4c3OCC43CCN(Cc4cc(C(F)(F)F)cc5[nH]ccc45)CC3)C2=O)C(=O)N1 (stereo not shown) and print it.
## Result 60 to 80%

## Task Retrieve Dmax measured for O=C1CCC(N2Cc3c(ccc4c3OCC43CCN(Cc4cccc(Cn5ccnc5)c4)CC3)C2=O)C(=O)N1 (stereo not shown) and print it.
## Result 60 to 80%

## Task Retrieve Dmax measured for O=C1CCC(N2Cc3c(ccc4c3OCC43CCN(Cc4ccc5[nH]ncc5c4)CC3)C2=O)C(=O)N1 (stereo not shown) and print it.
## Result 60 to 80%

## Task Retrieve Dmax measured for O=C1CCC(N2Cc3c(ccc4c3OCC43CCN(Cc4cc(F)cc5cc[nH]c45)CC3)C2=O)C(=O)N1 (stereo not shown) and print it.
## Result > 80%

## Task Retrieve Dmax measured for O=C1CCC(N2Cc3c(ccc4c3OCCC43CCN(CC4CCCCC4)CC3)C2=O)C(=O)N1 (stereo not shown) and print it.
## Result < 40%

## Task Retrieve Dmax measured for COc1ccc(CN2CCC3(CC2)COc2c3ccc3c2CN(C2CCC(=O)NC2=O)C3=O)cc1 (stereo not shown) and print it.
## Result < 40%

## Task Retrieve Dmax measured for `Cn1cc(-c2cccc(CN3CCC4(CC3)COc3c4ccc4c3CN([C@H]3CCC(=O)NC3=O)C4=O)c2)cn1` and print it.
## Result 60 to 80%

---

Target: IKZF2 (Homo sapiens (Human), UniProt Q96SW2+Q9UKS7)
Assay: IKZF2 HiBiT Assay (Jurkat-IKZF2-HiBiT cell line)
Type: cell-based
Details: Jurkat-IKZF2-HiBiT cells, 24 hours; read-out: HiBit assay degradation analysis Dmax
Dmax: recorded values

Molecule	System name	Dmax
O=C1CC[C@H](N2Cc3c(ccc4c3OCC43CCN(Cc4cccc(NC(=O)C(F)(F)F)c4)CC3)C2=O)C(=O)N1	IKZF2 (Homo sapiens (Human), UniProt Q96SW2+Q9UKS7)	> 80%
O=C1CCC(N2Cc3c(ccc4c3OCC43CCN(Cc4cnc5[nH]ccc5c4)CC3)C2=O)C(=O)N1 (stereo not drawn)	IKZF2 (Homo sapiens (Human), UniProt Q96SW2+Q9UKS7)	60 to 80%
O=C1CCC(N2Cc3c(ccc4c3OCC43CCN(Cc4c(F)ccc5occc45)CC3)C2=O)C(=O)N1 (stereo not drawn)	IKZF2 (Homo sapiens (Human), UniProt Q96SW2+Q9UKS7)	40 to 60%
O=C1CCC(N2Cc3c(ccc4c3OCC43CCN(Cc4ccn(-c5cccc(F)c5)n4)CC3)C2=O)C(=O)N1 (stereo not drawn)	IKZF2 (Homo sapiens (Human), UniProt Q96SW2+Q9UKS7)	40 to 60%
Cn1cc(-c2cccc(CN3CCC4(CC3)COc3c4ccc4c3CN(C3CCC(=O)NC3=O)C4=O)c2)cn1 (stereo not drawn)	IKZF2 (Homo sapiens (Human), UniProt Q96SW2+Q9UKS7)	60 to 80%

// below: Dmax requested for another molecule
## Task Retrieve Dmax measured for Cn1cc2cccc(CN3CCC4(CC3)COc3c4ccc4c3CN(C3CCC(=O)NC3=O)C4=O)c2n1 (stereo not drawn) and print it.
## Result 60 to 80%
